Molecular target: Cytochrome P450 2C19 (Homo sapiens) (UniProt P33261)
Sequence (P33261 whole entry, looked up): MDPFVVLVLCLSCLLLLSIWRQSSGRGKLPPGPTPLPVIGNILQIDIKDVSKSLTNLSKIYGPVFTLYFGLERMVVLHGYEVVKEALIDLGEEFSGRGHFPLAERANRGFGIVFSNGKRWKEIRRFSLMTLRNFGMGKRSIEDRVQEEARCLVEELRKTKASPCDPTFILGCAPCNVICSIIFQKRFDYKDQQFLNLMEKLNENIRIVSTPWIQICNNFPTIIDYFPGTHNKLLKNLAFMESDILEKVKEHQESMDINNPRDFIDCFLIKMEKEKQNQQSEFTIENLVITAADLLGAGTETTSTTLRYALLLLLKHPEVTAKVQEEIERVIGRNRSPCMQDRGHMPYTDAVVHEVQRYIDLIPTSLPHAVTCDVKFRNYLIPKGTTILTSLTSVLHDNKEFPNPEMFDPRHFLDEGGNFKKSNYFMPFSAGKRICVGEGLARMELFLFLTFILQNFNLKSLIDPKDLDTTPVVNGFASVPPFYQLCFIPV
Assay: blockers of cytochrome P450 2C19 activity – biochemical, luminescence, ADME assay, primary screen (AID 778)
Conditions: CYP2C19 Supersomes, luciferin-H EGE luminescence, 30 min; at 5 µM
About 20,000 (21%) of roughly 96,000 compounds were called active.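 How the source made its calls: active means CYP2C19 inhibition above a set limit at 5 µM in the primary screen (cut at about 50% in these data); inactive means the rest.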 Not all results are given here.
Result category, one only: active, inactive

Solved cases below.
compound: Cc1ccc(C)c(S(=O)(=O)n2cnc3ccccc32)c1
targetDesc: Cytochrome P450 2C19 (Homo sapiens) (UniProt P33261)
cat: inactive

compound: Cc1c(CCO)c(=O)n(-c2ccccc2)n1S(=O)(=O)c1ccc(F)cc1
targetDesc: Cytochrome P450 2C19 (Homo sapiens) (UniProt P33261)
cat: active

compound: Cc1ccccc1CS(=O)(=O)CC1(O)CCN(C(=O)c2cccc(C(F)(F)F)c2)CC1
targetDesc: Cytochrome P450 2C19 (Homo sapiens) (UniProt P33261)
cat: inactive

Check the results log: what was the call for Cc1cccc(NC(=O)c2ccccc2NC(=O)C(C)(C)C)n1 ? inactive

Check the results log: what was the call for Cc1ccc(C)c(NS(=O)(=O)c2cc(Br)cnc2N)c1 ? active

Check the results log: what was the call for CC(C)(C)c1ccc(C(=O)NNC(=O)Cc2ccccc2)cc1 ? inactive
